Target: SARS-CoV-2 (WIV02 isolate) prefusion stabilized spike trimer protein (UniProt P0DTC2 14-1213)
Assay: ELISA
pIC50: −log10 of the molar value.
Output Yes for pIC50 not less than 8; output No otherwise.

>>> class_name("4-N22-A (antibody, V domains shown) VH: QVQLQQPGTELVKPGASVKLSCKASGYTFTNYWMYWVKQRPGQGLDWIGNINPSNGGTNYNEKFKSKATLTVDKSSSTAYMQLSSLTSEDSAVYYCARETGNYWGQGTTLTVSS VL: DILMTQSPSSMSVSLGDTVSISCHASQGISSNIGWLQQKPGKSFKGLIYHGTNLEDGVPSRFSGSGSGADYSLTISSLESEDFADYYCVQYAQFPYTFGGGTKLEIK")
"Yes"
>>> class_name("8-L17-A (antibody, V domains shown) VH: EVQLVESGGGLVQPKGSLKLSCAASGFTFNTYAMHWVRQAPGKGLEWVARIRSKSSNYARYYADSVKDRFTISRDDSQSMLYLQMNNLKTEDTAMYYCVRDHDYYGSSYWFAYWGQGTLVTVSA VL: DVVMTQTPLSLPVSLGDQASISCRSSQSLVHNNGNTYLHWYLQKPGQSPKLLIYKVSNRFSGVPDRFSGSGSGTDFTLKISRVEAEDLGVYFCSQSTHVPWTFGGGTKLEIK")
"No"

Each recorded value in this set is attributed to patent US20230115257A1.
